target: T1, human CD28, full-length, expressed on transfected Expi293 cells (human, UniProt P10747 19-220); assay: flow cytometry, 100 nM, Expi293 cells with human CD28
T1 construct: whole, on cells
Reported MFI ratio to WT (ΔWT) values for a set of binders
Express your answer in fold, writing the number without its unit.

BINDER | MFI ratio to WT (ΔWT) (fold)
variant ICOSL IgV-Fc fusion N52A/N57Y/Q100A (Fc fusion) DTQEKEVRAMVGSDVELSCACPEGSRFDLNDVYVYWQTSESKTVVTYHIPQASSLEYVDSRYRNRALMSPAGMLRGDFSLRLFNVTPQDEQKFHCLVLSASLGFQEVLSVEVTLHVAANFSVGSGGGGSEPKSSDKTHTCPPCPAPEAEGAPSVFLFPPKPKDTLMISRTPEVTCVVVDVSHEDPEVKFNWYVDGVEVHNAKTKPREEQYNSTYRVVSVLTVLHQDWLNGKEYKCKVSNKALPAPIEKTISKAKGQPREPQVYTLPPSREEMTKNQVSLTCLVKGFYPSDIAVEWESNGQPENNYKTTPPVLDSDGSFFLYSKLTVDKSRWQQGNVFSCSVMHEALHNHYTQKSLSLSPG | 6.6

# evaluate next
Query string: Please report the recorded MFI ratio to WT (ΔWT) for variant ICOSL IgV-Fc fusion N52K/N57Y/Q100R (Fc fusion) DTQEKEVRAMVGSDVELSCACPEGSRFDLNDVYVYWQTSESKTVVTYHIPQKSSLEYVDSRYRNRALMSPAGMLRGDFSLRLFNVTPQDEQKFHCLVLSRSLGFQEVLSVEVTLHVAANFSVGSGGGGSEPKSSDKTHTCPPCPAPEAEGAPSVFLFPPKPKDTLMISRTPEVTCVVVDVSHEDPEVKFNWYVDGVEVHNAKTKPREEQYNSTYRVVSVLTVLHQDWLNGKEYKCKVSNKALPAPIEKTISKAKGQPREPQVYTLPPSREEMTKNQVSLTCLVKGFYPSDIAVEWESNGQPENNYKTTPPVLDSDGSFFLYSKLTVDKSRWQQGNVFSCSVMHEALHNHYTQKSLSLSPG .
Result string: 6.3
